# MEASUREMENT_SETUP: in acetonitrile, 298.15 K

- SUBSTANCE_SMILES: "CONC(=O)Nc1ccc(-c2sc3c(c2CN(C)C)c(=O)n(-c2ccc(OC)nn2)c(=O)n3Cc2c(F)cccc2F)cc1"
  solubility (mole fraction): 0.000483

###

# MEASUREMENT_SETUP: in isopropanol, 323.15 K

- SUBSTANCE_SMILES: "CONC(=O)Nc1ccc(-c2sc3c(c2CN(C)C)c(=O)n(-c2ccc(OC)nn2)c(=O)n3Cc2c(F)cccc2F)cc1"
  solubility (mole fraction): 0.000191

###

# MEASUREMENT_SETUP: in methanol, 308.15 K

- SUBSTANCE_SMILES: "CONC(=O)Nc1ccc(-c2sc3c(c2CN(C)C)c(=O)n(-c2ccc(OC)nn2)c(=O)n3Cc2c(F)cccc2F)cc1"
  solubility (mole fraction): 0.000578

###

# MEASUREMENT_SETUP: in acetonitrile, 323.15 K

- SUBSTANCE_SMILES: "CONC(=O)Nc1ccc(-c2sc3c(c2CN(C)C)c(=O)n(-c2ccc(OC)nn2)c(=O)n3Cc2c(F)cccc2F)cc1"
  solubility (mole fraction): 0.000999

###

# MEASUREMENT_SETUP: in ethanol, 318.15 K

- SUBSTANCE_SMILES: "CONC(=O)Nc1ccc(-c2sc3c(c2CN(C)C)c(=O)n(-c2ccc(OC)nn2)c(=O)n3Cc2c(F)cccc2F)cc1"
  solubility (mole fraction): 0.00025

###

# MEASUREMENT_SETUP: in isopropanol, 303.15 K

- SUBSTANCE_SMILES: "CONC(=O)Nc1ccc(-c2sc3c(c2CN(C)C)c(=O)n(-c2ccc(OC)nn2)c(=O)n3Cc2c(F)cccc2F)cc1"
  solubility (mole fraction): "8.3e-05"

###

# MEASUREMENT_SETUP: in acetonitrile, 313.15 K
OUTCOME_MEASURE: solubility (mole fraction)

- SUBSTANCE_SMILES: "CONC(=O)Nc1ccc(-c2sc3c(c2CN(C)C)c(=O)n(-c2ccc(OC)nn2)c(=O)n3Cc2c(F)cccc2F)cc1"
  OUTCOME_MEASURE: "solubility (mole fraction)"
  TEST_VALUE: 0.000752

###

# MEASUREMENT_SETUP: in isopropanol, 313.15 K
OUTCOME_MEASURE: solubility (mole fraction)

- SUBSTANCE_SMILES: "CONC(=O)Nc1ccc(-c2sc3c(c2CN(C)C)c(=O)n(-c2ccc(OC)nn2)c(=O)n3Cc2c(F)cccc2F)cc1"
  TEST_VALUE: 0.000125

###

# MEASUREMENT_SETUP: in methanol, 313.15 K
OUTCOME_MEASURE: solubility (mole fraction)

- SUBSTANCE_SMILES: "CONC(=O)Nc1ccc(-c2sc3c(c2CN(C)C)c(=O)n(-c2ccc(OC)nn2)c(=O)n3Cc2c(F)cccc2F)cc1"
  OUTCOME_MEASURE: "solubility (mole fraction)"
  TEST_VALUE: 0.000639

###

# MEASUREMENT_SETUP: in isopropanol, 318.15 K
OUTCOME_MEASURE: solubility (mole fraction)

- SUBSTANCE_SMILES: "CONC(=O)Nc1ccc(-c2sc3c(c2CN(C)C)c(=O)n(-c2ccc(OC)nn2)c(=O)n3Cc2c(F)cccc2F)cc1"
  TEST_VALUE: 0.000153
